Data provenance is patent US9242943B2.

Biological target: UniProt P10635
Sequence (P10635 whole entry): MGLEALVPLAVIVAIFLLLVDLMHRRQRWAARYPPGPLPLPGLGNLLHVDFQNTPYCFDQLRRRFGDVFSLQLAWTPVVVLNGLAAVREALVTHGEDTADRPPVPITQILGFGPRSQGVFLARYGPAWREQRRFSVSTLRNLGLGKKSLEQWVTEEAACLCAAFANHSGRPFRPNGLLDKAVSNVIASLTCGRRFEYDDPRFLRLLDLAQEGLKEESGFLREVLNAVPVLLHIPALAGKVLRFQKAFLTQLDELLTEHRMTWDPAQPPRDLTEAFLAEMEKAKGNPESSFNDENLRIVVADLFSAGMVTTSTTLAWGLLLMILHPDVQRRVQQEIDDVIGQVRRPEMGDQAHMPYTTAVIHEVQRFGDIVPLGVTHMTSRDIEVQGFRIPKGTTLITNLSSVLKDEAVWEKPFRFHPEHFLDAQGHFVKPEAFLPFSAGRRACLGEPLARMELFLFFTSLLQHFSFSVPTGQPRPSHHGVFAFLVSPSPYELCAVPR
Experiment: CYP inhibition assay, human liver microsomes, dextromethorphan O-demethylase
Type: in vitro ADME
Conditions: pooled human liver microsomes, dextromethorphan substrate; read-out: CYP IC50 2D6
Attribute Measured: pIC50
Convention used: pIC50 is expressed as -log10 of the molar concentration.

> print(dat)
                                   compound  value.observed
1  C[C@@]1(c2cc(Nc3cc(Cl)cc4cc(Cl)cnc34)ccc2F)COCC(N)=N1 [Example 27]            5.35

// below: pIC50 requested for another compound
Return reported pIC50; argument: Cn1nc(Nc2ccc(F)c([C@@]3(C)COCC(N)=N3)c2)c2ccc(Cl)cc21 [Example 34]
5.70
